target: human glucagon receptor (human) (UniProt P47871); experiment: cell-based or functional assay
Sequence (P47871 26-477): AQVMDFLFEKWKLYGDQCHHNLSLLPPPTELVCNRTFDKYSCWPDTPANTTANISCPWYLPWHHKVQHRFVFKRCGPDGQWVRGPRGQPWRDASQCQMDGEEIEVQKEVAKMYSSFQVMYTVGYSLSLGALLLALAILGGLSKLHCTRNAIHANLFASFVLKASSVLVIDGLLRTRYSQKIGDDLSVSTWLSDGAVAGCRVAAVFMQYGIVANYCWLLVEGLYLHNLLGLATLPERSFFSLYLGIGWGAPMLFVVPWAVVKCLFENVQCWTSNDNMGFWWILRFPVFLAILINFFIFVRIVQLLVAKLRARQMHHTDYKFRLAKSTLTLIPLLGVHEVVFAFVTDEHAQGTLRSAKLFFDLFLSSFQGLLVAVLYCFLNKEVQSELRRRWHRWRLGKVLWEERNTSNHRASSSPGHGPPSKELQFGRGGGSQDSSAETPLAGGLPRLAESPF
Starred links: 1 amine or outer side, 2 acyl side, 3 side chain; linkers in the order of their positions; H or OH if unused. Non-standard residues stand in square brackets, D forms with d. Groups on a side chain read outwards from the residue. No end group written: not given here. *: point of attachment. C20 diacid = O=C(O)CCCCCCCCCCCCCCCCCCC(=O)*; Phe(4-CN) = N#Cc1ccc(C[C@H](N)C(=O)O)cc1; αMePhe(2-F) = C[C@](N)(Cc1ccccc1F)C(=O)O; γGlu = O=C(O)[C@H](CCC(=O)[*:2])N[*:1]; αMeL = CC(C)C[C@](C)(N)C(=O)O; AEEA = NCCOCCOCC(=O)O; Aib = CC(C)(N)C(=O)O
readout label: Relative cAMP EC50 (nM)
Give the value, in units of nM, as a plain number.

Q: Field request: Relative cAMP EC50 | item: YXQGTFTSDXSQXLDXKAQXAFIQXLIEXGPSSGEPPPSGGGE (not fully specified; non-natural residues, C18 diacid acylation, C-terminal amide; synthetic construct; SITE 2: note = 2-Aminoisobutyric Acid; SITE 10: note = 3-(4-Pyridyl)-L-alanine; SITE 13: note = alpha-methyl-leucine; SITE 16: note = L-ornithine; SITE 17: note = Lysine is chemically modified through conjugation of the epsilon-amino group of the Lysine side chain with D-Glutami) [Example 1131]
A: 8.42

Q: Field request: Relative cAMP EC50 | item: Y[Aib]QGT[αMePhe(2-F)]TSD[Phe(4-CN)]SILLDKQAQKAFIEYLLEGGPSSGEPPPSEG-NH2 (not fully specified (residue 20)) [Example 352]
A: 16.4

Q: Field request: Relative cAMP EC50 | item: YXQGTXTSDXXIXLDXXAQXEFIEXLIEGGPSSGAPPPSGSE (synthetic construct; SITE 2: note = 2-Aminoisobutyric Acid; SITE 6: note = alpha-methyl-2-fluoro-L-phenylalanine; SITE 10: note = 3-(4-Pyridyl)-L-alanine; SITE 11: note = alpha-methyl-L-serine; SITE 13: note = alpha-methyl-leucine; SITE 16: note = L-ornithine; SITE 17: note = Ornithine is chemically) [Example 1212]
A: 1.71

Q: Field request: Relative cAMP EC50 | item: YXQGTFTSDFSKXLDKKAQXAFIEYLLEGGPSSGEPPPEEG (not fully specified; Aib, αMeL; acylated Lys; C-terminal amide; synthetic construct; SITE 2: note = 2-Aminoisobutyric Acid; SITE 13: note = alpha-methyl-leucine; SITE 17: note = Lysine is chemically modified through conjugation of the epsilon-amino group of the Lysine side chain with (2-[2-(2-Amino-ethoxy)-ethoxy]-acetyl)-(gamma-Glu)-CO-(CH2) 18-CO2H; SITE 20: n) [Example 35]
A: 4.32

Q: Field request: Relative cAMP EC50 | item: YXQGTFTSDFSXXLDKKAQXAFIEWLLEGGPSSGAPPPEGX (synthetic construct; SITE 2: note = 2-Aminoisobutyric Acid; SITE 12: note = L-ornithine; SITE 13: note = alpha-methyl-leucine; SITE 17: note = Lysine is chemically modified through conjugation of the epsilon-amino group of the Lysine side chain with (2-[2-(2-Amino-ethoxy)-ethoxy]-acetyl)-(gamma-Glu)) [Example 262]
A: 9.77

Q: Field request: Relative cAMP EC50 | item: Y[Aib]QGTFTSDYSI[αMeL]LDKQAAK([AEEA-AEEA-γGlu-C20 diacid])QFVEWLLAGGPSSGEPPPGEG-NH2 [Example 320]
A: 6.87

Q: Field request: Relative cAMP EC50 | item: YXQGTXTSDXXIXLDXKAQXXFIEXLAEGGPSSGEPPPE (synthetic construct; SITE 2: note = 2-Aminoisobutyric Acid; SITE 6: note = alpha-methyl-2-fluoro-L-phenylalanine; SITE 10: note = 3-(4-Pyridyl)-L-alanine; SITE 11: note = alpha-methyl-L-serine; SITE 13: note = alpha-methyl-leucine; SITE 16: note = L-ornithine; SITE 17: note = Lysine is chemically mo) [Example 437]
A: 1.76

Q: Field request: Relative cAMP EC50 | item: YXQGTXTSDXXIXLDXKAQXQFIEXLQEGGPSSGEPPPEGTE (synthetic construct; SITE 2: note = 2-Aminoisobutyric Acid; SITE 6: note = alpha-methyl-2-fluoro-L-phenylalanine; SITE 10: note = 3-(4-Pyridyl)-L-alanine; SITE 11: note = alpha-methyl-L-serine; SITE 13: note = alpha-methyl-leucine; SITE 16: note = L-ornithine; SITE 17: note = Lysine is chemically mo) [Example 528]
A: 7

Q: Field request: Relative cAMP EC50 | item: YXQGTFTSDFSXXLDKKAQXAFIEYLLEAGPSSGAPPPEGE (Aib, Orn, αMeL, D-Ala; AEEA-γGlu-C18 diacid acyl; amide; synthetic construct; SITE 2: note = 2-Aminoisobutyric Acid; SITE 12: note = L-ornithine; SITE 13: note = alpha-methyl-leucine; SITE 17: note = Lysine is chemically modified through conjugation of the epsilon-amino group of the Lysine side chain with (2-[2-(2-Amino-ethoxy)-ethoxy]-acetyl)-(gamma-Glu)) [Example 206]
A: 2.2

Q: Field request: Relative cAMP EC50 | item: YXQGTFTSDXSQXLDKKAQXAFIEXLIEXGPSSGAPPPSGE (Aib, 4Pal, αMeL, Me4Pal; acylated K; C-terminal amide; synthetic construct; SITE 2: note = 2-Aminoisobutyric Acid; SITE 10: note = 3-(4-Pyridyl)-L-alanine; SITE 13: note = alpha-methyl-leucine; SITE 17: note = Lysine is chemically modified through conjugation of the epsilon-amino group of the Lysine side chain with (gamma-Glu)2-CO-(CH2)16-CO2H; SITE 20:) [Example 1120]
A: 5.17

Q: Field request: Relative cAMP EC50 | item: YXQGTFTSDXSQXLDXKAQXQFIEXLIEGGPSSGEPPPSGSEE (non-natural residues, lipidated Lys, C-terminal amide; synthetic construct; SITE 2: note = 2-Aminoisobutyric Acid; SITE 10: note = 3-(4-Pyridyl)-L-alanine; SITE 13: note = alpha-methyl-leucine; SITE 16: note = L-ornithine; SITE 17: note = Lysine is chemically modified through conjugation of the epsilon-amino group of the Lysine side chain with (gamma-Gl)) [Example 1026]
A: 6.32

Q: Field request: Relative cAMP EC50 | item: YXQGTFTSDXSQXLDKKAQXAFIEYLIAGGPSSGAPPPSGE (Aib, 4Pal, αMeL, Me4Pal; acylated lysine; amide; synthetic construct; SITE 2: note = 2-Aminoisobutyric Acid; SITE 10: note = 3-(4-Pyridyl)-L-alanine; SITE 13: note = alpha-methyl-leucine; SITE 17: note = Lysine is chemically modified through conjugation of the epsilon-amino group of the Lysine side chain with (Glu)2-(gamma-Glu)-CO-(CH2)16-CO2H; SI) [Example 1087]
A: 15.4

Q: Field request: Relative cAMP EC50 | item: YXQGTXTSDXSIXLDKKAQXXFIEYLEEGGPSSGEPPPSGSEE (non-natural residues; C18 diacid-(γ-Glu)2 acyl on Lys; C-terminal amide; synthetic construct; SITE 2: note = 2-Aminoisobutyric Acid; SITE 6: note = alpha-methyl-2-fluoro-L-phenylalanine; SITE 10: note = 3-(4-Pyridyl)-L-alanine; SITE 13: note = alpha-methyl-leucine; SITE 17: note = Lysine is chemically modified through conjugation of the epsilon-amino group of the Lysine) [Example 635]
A: 7.09

Q: Field request: Relative cAMP EC50 | item: Y[Aib]QGT[αMePhe(2-F)]TSDYSILLDKQAQKAFIEYLLEGGPSSGEPPPSEG-NH2 (not fully specified (residue 20)) [Example 345]
A: 11.3

Q: Field request: Relative cAMP EC50 | item: YXQGTXTSDXSIXLDXKAQXXFIEXLIEGGPSSGEPPPEGT (synthetic construct; SITE 2: note = 2-Aminoisobutyric Acid; SITE 6: note = alpha-methyl-2-fluoro-L-phenylalanine; SITE 10: note = 3-(4-Pyridyl)-L-alanine; SITE 13: note = alpha-methyl-leucine; SITE 16: note = L-ornithine; SITE 17: note = Lysine is chemically modified through conjugation of the epsil) [Example 505]
A: 0.445

Q: Field request: Relative cAMP EC50 | item: YXQGTFTSDFSXXLDKKAQXAFIEYLLEAGPSSGXPPPSGS (synthetic construct; SITE 2: note = 2-Aminoisobutyric Acid; SITE 12: note = L-ornithine; SITE 13: note = alpha-methyl-leucine; SITE 17: note = Lysine is chemically modified through conjugation of the epsilon-amino group of the Lysine side chain with (2-[2-(2-Amino-ethoxy)-ethoxy]-acetyl)2-(gamma-Glu)) [Example 254]
A: 4.9

Q: Field request: Relative cAMP EC50 | item: YXQGTFTSDXSQXLDXKAQXQFIEXLIAXGPSSGEPPPSGSEE (not fully specified; Aib, 4Pal, Orn, Me4Pal, αMeY; lipidated Lys; C-terminal amide; synthetic construct; SITE 2: note = 2-Aminoisobutyric Acid; SITE 10: note = 3-(4-Pyridyl)-L-alanine; SITE 13: note = alpha-methyl-leucine; SITE 16: note = L-ornithine; SITE 17: note = Lysine is chemically modified through conjugation of the epsilon-amino group of the Lysine side chain with D-Glutami) [Example 1106]
A: 7.71

Q: Field request: Relative cAMP EC50 | item: YXQGTFTSDFSQXLDKKAQXAFIEYLIEXGESSGAPPPSGS (non-natural residues (Aib, αMeL, αMe4Pal); lipidated K; C-terminal amide; synthetic construct; SITE 2: note = 2-Aminoisobutyric Acid; SITE 13: note = alpha-methyl-leucine; SITE 17: note = Lysine is chemically modified through conjugation of the epsilon-amino group of the Lysine side chain with (2-[2-(2-Amino-ethoxy)-ethoxy]-acetyl)-(gamma-Glu)-CO-(CH2) 16-CO2H; SITE 20: n) [Example 232]
A: 2.42

Q: Field request: Relative cAMP EC50 | item: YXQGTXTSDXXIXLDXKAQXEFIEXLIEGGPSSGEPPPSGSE ((γGlu)2-C18 diacid on Lys; non-natural residues; amide; synthetic construct; SITE 2: note = 2-Aminoisobutyric Acid; SITE 6: note = alpha-methyl-L-phenylalanine; SITE 10: note = …; SITE 11: note = alpha-methyl-L-serine; SITE 13: note = alpha-methyl-leucine; SITE 16: note = L-ornithine; SITE 17: note = Lysine is chemically modified th) [Example 1173]
A: 2.31

Q: Field request: Relative cAMP EC50 | item: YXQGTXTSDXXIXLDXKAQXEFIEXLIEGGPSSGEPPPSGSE (non-natural residues, C-terminal amide, acylated Lys with fatty diacid; synthetic construct; SITE 2: note = 2-Aminoisobutyric Acid; SITE 6: note = alpha-methyl-2-fluoro-L-phenylalanine; SITE 10: note = 3-(4-Pyridyl)-L-alanine; SITE 11: note = alpha-methyl-L-serine; SITE 13: note = alpha-methyl-leucine; SITE 16: note = L-ornithine; SITE 17: note = Lysine is chemically mo) [Example 1179]
A: 2.87

Q: Field request: Relative cAMP EC50 | item: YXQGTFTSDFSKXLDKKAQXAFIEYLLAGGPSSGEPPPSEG (Aib, αMeL; acyl on Lys; C-terminal amide; synthetic construct; SITE 2: note = 2-Aminoisobutyric Acid; SITE 13: note = alpha-methyl-leucine; SITE 17: note = Lysine is chemically modified through conjugation of the epsilon-amino group of the Lysine side chain with (2-[2-(2-Amino-ethoxy)-ethoxy]-acetyl)-(gamma-Glu)-CO-(CH2) 16-CO2H; SITE 20: n) [Example 22]
A: 5.42

Q: Field request: Relative cAMP EC50 | item: YXQGTXTSDYSIXLDKKAQXAFIEYLEEGGPSSGAPPPSE (synthetic construct; SITE 2: note = 2-Aminoisobutyric Acid; SITE 6: note = alpha-methyl-2-fluoro-L-phenylalanine; SITE 13: note = alpha-methyl-leucine; SITE 17: note = Lysine is chemically modified through conjugation of the epsilon-amino group of the Lysine side chain with (2-[2-(2-Amino-ethoxy)-et)) [Example 424]
A: 3.12

Q: Field request: Relative cAMP EC50 | item: YXQGTFTSDFSXXLDKKAQXAFIEWLLEGGHSSGEPPPEGS (synthetic construct; SITE 2: note = 2-Aminoisobutyric Acid; SITE 12: note = L-ornithine; SITE 13: note = alpha-methyl-leucine; SITE 17: note = Lysine is chemically modified through conjugation of the epsilon-amino group of the Lysine side chain with (2-[2-(2-Amino-ethoxy)-ethoxy]-acetyl)-(gamma-Glu)) [Example 127]
A: 4.35

From: patent US20240270821A1
